test system: EKVX NSCLC; assay: NCI-60 one-dose screen, 48 h; settings: 10 µM unless noted
About 83,000 compounds went through this panel and 20% of them were active in at least one assay; those are over-represented in the sample as a whole. Activity calls are given as the source filed them. Rule for the calls: active = growth percent below 10; inactive = the rest.
Labels: T (active), F (inactive)

COMPOUND	CLASS
COC1C(O)CC(OC2CC(OC3CC(O[C@@H]4C(=O)c5c(cc6cc(OC7CC(OC8CC(O)C(O)C(C)O8)C(O)C(C)O7)c(C)c(O)c6c5O)CC4[C@H](OC)C(=O)C(C)=O)OC(C)C3O)OC(C)C2O)OC1C (stereo not given in full)	T
COc1cc(N2C(=O)[C@H](Cl)C2c2ccc(SC)cc2)cc(OC)c1OC (stereo not given in full)	F
O=C(NN1C(=O)CSC1c1cccc([N+](=O)[O-])c1)c1ccc(NC(=O)c2ccccn2)cc1 (stereo not given)	F
ClCCn1cnc2c(SCc3ccccc3)ncnc21	F
COc1cc(O)c2c(=O)c3c(CC=C(C)C)cc(OC)c(O)c3oc2c1	F
C[C@@H]1CN(c2cnc(C(=O)Nc3cc(F)cc4cccnc34)cn2)C[C@H](C)N1	F
CC(=O)O[C@H]1CC[C@]2(C)[C@H]3CC=C4[C@@H]5CC(C)(C)CC[C@]5(C(=O)N5CCN(CCC#N)CC5)CC[C@@]4(C)[C@]3(C)CC[C@H]2C1(C)C	F
CCOC(=O)c1cn2ncnc(Oc3ccc(NC(=O)NC4CC4)c(Cl)c3)c2c1C	F
C[C@H](c1nc2ccc(C#N)cc2[nH]1)[C@H]1CC[C@H]2[C@@H]3CCC4=CC(=O)CC[C@]4(C)[C@H]3CC[C@]12C	F
CC(C)(C)c1ccc(C(=O)N/N=C/c2ccc(O)cc2O)cc1	F
Cn1c(=O)c2[nH]c(SC/C(=N/O)c3ccc(Br)cc3)nc2n(C)c1=O	F
O=C1/C(=C/c2c[nH]c(=O)[nH]c2=O)SC(=S)N1Cc1ccccc1	F
COc1cc(/C=N/NC(=O)c2ccc(-n3cc(-c4ccccc4)nn3)cc2)cc(OC)c1OC	F
Cc1ccc2nc(-c3ccc(C(=O)N/N=C/c4ccc([N+](=O)[O-])cc4)cc3)[nH]c2c1	F
CCN(CC)CCN1C(=O)c2c(c3c4ccccc4[nH]c3c3ccc4ccccc4c23)C1=O	F
Nc1nc2ccccc2c2c(=O)c3cc(Cl)ccc3sc12	F
C=C(C)[C@@H]1CC[C@]2(CO)CC[C@]3(C)[C@H](CC[C@@H]4[C@@](C)(CCCN)[C@H](C(=C)C)CC[C@]43C)[C@@H]12	T
Cc1c2ncccc2nc2[nH]c3ccc(OCCN(C)C)cc3c12	F
COc1cc(/C=C/C(=O)c2cccc(-n3cc(-c4ccc(Cl)cc4)[nH]c3=O)c2)ccc1O	F
COc1cc(/C=C/c2cn[nH]c2-c2ccc(C)cc2)cc(OC)c1OC	F
CCOC(=O)c1c(NC(=O)c2ccccc2)sc2c3c(ccc12)OCN(C)C3	F
COc1ccc(C2CC(c3ccccc3)=NN2C(=O)c2cc(OC)c(OC)c(OC)c2)cc1O (stereo not given)	F
COCCn1cc(-c2csc(-c3c[nH]c4ccc(F)cc34)n2)c2cccnc21	F
Cn1cc(-c2nc3c(F)cc4[nH]ncc4c3c3c2CCCC3)c(C(F)(F)F)n1	F
Cc1ccc(-c2nc(SCC(=O)N3CCN(c4cc5c(cc4F)c(=O)c(C(=O)O)cn5C4CC4)CC3)nc(Cl)c2C#N)cc1	F
